Hi there, I'd appreciate the recorded protein stability index for every entry that follows.
B1: C8orf76 (parent)
chain: LYLQLAICSSLQNLEKTIFCLQKL

variants of: B1; assay: protein stability index of a GFP-peptide fusion (GPS, HEK-293T) (PSI 1-6); higher = more stable; settings: c terminus: a fixed tail appended;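 further: lentivirally expressed fusions sorted by FACS into six bins by GFP to DsRed ratio, PSI derived from sequencing read proportions per bin multiplied by bin number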
No unit in the answer, please; the number alone is enough.

So for "L21N" , the logged protein stability index turned out to be 2.25

The reported protein stability index of the variant "I18L" was 2.46

GET /value?item= "C8G" &field=protein stability index returns 3.48

Per the records, this variant ( "E15G" ) has protein stability index equal to 1.69

For reference, reported protein stability index for "K16S" stands at 2.67

// "N13M" : protein stability index value = 3.43

Sample "A6R" ; protein stability index observed: 3.17

For this variant ( "S9G" ), measured protein stability index is 3.03

So for "L3C" , the logged protein stability index turned out to be 4.32

Noted for "L5Y" : its protein stability index reads 2.57

In plain terms, "L14A" has a documented protein stability index of 2.33

// sample "T17Y" , its protein stability index was 3.47

variant "T17H" , protein stability index observed: 2.34

Given item "K23P" , the value recorded as its protein stability index is 2.54

Form field protein stability index, entry "I18F" : 2.57

Memo: "L3V" , reported protein stability index: 3.09

So, "Q22W" ? Its protein stability index was 1.93

Item: "L24W" | protein stability index: 2.79

// sample "I7Y" , its protein stability index was 3.21

For record "L11I" the listed protein stability index is 2.28

get_value(item= "S10V" , readout=protein stability index) returns 3.44

The variant listed as "E15R" shows protein stability index equal to 2.63
